Reference for the values: patent US20170165337A1

TESTED ON: T1, HLA-A*02:01 (human)
T1 construct: MHC class I monomer of the UV-ligand exchange assay; also called peptide-receptive MHC molecules; MHC class I
EXPERIMENTAL DETAILS: UV peptide-exchange ELISA
METRIC NAME: peptide exchange yield

The cases that follow already have their peptide exchange yield on record.
# BINDER, VALUE OBSERVED
records = [
    ("VLAFLVHEL", "≥ 75%"),
    ("LLIPVVPGV", "50 to 75%"),
    ("TVLPVPPLSV", "50 to 75%"),
    ("YMFEEVPIVI", "≥ 75%"),
]

// each binder listed below needs its peptide exchange yield
1. LIDVKPLGV
2. AVLQAVTAV
3. SLDLFNCEV
4. YIIDSAQAV
5. ILLNEDDLVTI

["50 to 75%", "50 to 75%", "≥ 75%", "50 to 75%", "50 to 75%"]
